# measurement.target: T1, human CLDN9 (UniProt O95484 1-217)
# T1 chain: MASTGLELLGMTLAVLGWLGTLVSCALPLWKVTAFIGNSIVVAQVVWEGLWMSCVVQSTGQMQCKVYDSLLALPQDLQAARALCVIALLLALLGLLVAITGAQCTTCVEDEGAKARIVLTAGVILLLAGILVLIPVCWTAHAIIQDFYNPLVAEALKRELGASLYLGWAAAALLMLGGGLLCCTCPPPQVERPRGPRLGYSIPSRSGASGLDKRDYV
# protocol.summary: HEK293E cell binding; avid
property.name: EC50 (µg/mL)
The answer is to be given in µg/mL; state only the numeric part.

// known answers, use as guide
Query block: For XENP35066 H2_L1.23 (antibody, V domains shown) VH: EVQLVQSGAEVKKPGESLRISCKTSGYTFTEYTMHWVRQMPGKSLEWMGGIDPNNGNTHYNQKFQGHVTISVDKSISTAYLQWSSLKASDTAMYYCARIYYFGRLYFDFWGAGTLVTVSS VL: DIQMTQSPSSLSASVGDRVTITCQASEDIYNRLAWYQQKPGKVPKLLISGATSRETGVPSRFSGSGSGKDYTFTISSLQPEDIATYYCQQYWSSPLTFGGGTKVEIKR , what is its reported EC50?
Result block: 31.8

Query block: For XENP35097 H2.4_L1 (antibody, V domains shown) VH: EVQLVQSGAEVKKPGESLRISCKTSGYTFTEYTMHWVRQMPGKSLEWMGGIDGNNGNTHYNQKFQGHVTISVDKSISTAYLQWSSLKASDTAMYYCARIYYFGRLYFDFWGAGTLVTVSS VL: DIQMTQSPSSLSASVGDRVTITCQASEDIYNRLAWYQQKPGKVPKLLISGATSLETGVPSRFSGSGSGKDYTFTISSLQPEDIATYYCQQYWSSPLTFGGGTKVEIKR , what is its reported EC50?
Result block: 72.9

Query block: For XENP35088 H1.4_L1 (antibody, V domains shown) VH: QVQLVQSGAEVKKPGASVKVSCKTSGYTFTEYTMHWVRQAPGQSLEWMGGIDANNGNTHYNQKFQGRVTITVDKSASTAYMELSSLRSEDTAVYYCARIYYFGRLYFDFWGAGTLVTVSS VL: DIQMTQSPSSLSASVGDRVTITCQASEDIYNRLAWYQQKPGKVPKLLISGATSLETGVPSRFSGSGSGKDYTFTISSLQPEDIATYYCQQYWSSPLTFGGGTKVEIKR , what is its reported EC50?
Result block: 29.2

Query block: For XENP35092 H1.8_L1 (antibody, V domains shown) VH: QVQLVQSGAEVKKPGASVKVSCKTSGYTFTEYTMHWVRQAPGQSLEWMGGIDPNNDNTHYNQKFQGRVTITVDKSASTAYMELSSLRSEDTAVYYCARIYYFGRLYFDFWGAGTLVTVSS VL: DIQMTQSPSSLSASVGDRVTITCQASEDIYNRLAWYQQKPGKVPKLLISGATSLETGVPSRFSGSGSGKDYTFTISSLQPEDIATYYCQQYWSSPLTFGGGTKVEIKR , what is its reported EC50?
Result block: 25

***
Query block: For XENP35047 H2_L1.4 (antibody, V domains shown) VH: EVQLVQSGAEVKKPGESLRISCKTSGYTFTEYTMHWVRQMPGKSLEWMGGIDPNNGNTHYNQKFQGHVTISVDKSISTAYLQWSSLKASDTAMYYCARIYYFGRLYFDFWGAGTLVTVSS VL: DIQMTQSPSSLSASVGDRVTITCQASEDVYNRLAWYQQKPGKVPKLLISGATSLETGVPSRFSGSGSGKDYTFTISSLQPEDIATYYCQQYWSSPLTFGGGTKVEIKR , what is its reported EC50?
Result block: 17.6
